System: Salmonella typhimurium
Experiment: MIC, agar dilution, Salmonella typhimurium
Assay type: cell-based
Conditions: Salmonella enterica, TYPHIMURIUM / UC6164; strain UC6164; read-out: MIC
Mark Y only for MIC values smaller than 1 µg/mL; exact matches and larger values are N.

| molecule | class.assignment |
| --- | --- |
| CO/N=C(\C(=O)N[C@@H]1C(=O)N2C(C(=O)O)=C(CSSc3ccc([N+](=O)[O-])cc3)CS[C@H]12)c1csc(N)n1 | N |
| CCCCSSCC1=C(C(=O)O)N2C(=O)[C@@H](NC(=O)/C(=N\OC)c3csc(N)n3)[C@H]2SC1 | N |
| CO/N=C(\C(=O)N[C@@H]1C(=O)N2C(C(=O)O)=C(CSC(=O)c3ccco3)CS[C@H]12)c1csc(N)n1 [ceftiofur, reference compound] | Y |
| CO/N=C(\C(=O)N[C@@H]1C(=O)N2C(C(=O)O)=C(CO)CS[C@H]12)c1csc(N)n1 [desacetyl cefotoxime, reference compound] | Y |
| CO/N=C(\C(=O)N[C@@H]1C(=O)N2C(C(=O)O)=C(CSSC3CCCCC3)CS[C@H]12)c1csc(N)n1 | N |
| CO/N=C(\C(=O)N[C@@H]1C(=O)N2C(C(=O)O)=C(CSSCc3ccccc3)CS[C@H]12)c1csc(N)n1 | N |
| CO/N=C(\C(=O)N[C@@H]1C(=O)N2C(C(=O)O)=C(CSSc3ccccc3)CS[C@H]12)c1csc(N)n1 | N |

###

Test system: Streptococcus uberis
Assay: MIC, agar dilution, Streptococcus uberis
Assay type: cell-based
Conditions: Streptococcus uberis; strain UC6159; read-out: MIC
Mark yes only for MIC values smaller than 8 µg/mL; exact matches and larger values are no.

| compound | class.assignment |
| --- | --- |
| CCCSSCC1=C(C(=O)O)N2C(=O)[C@@H](NC(=O)/C(=N\OC)c3csc(N)n3)[C@H]2SC1 [Example 11] | no |
| CO/N=C(\C(=O)N[C@@H]1C(=O)N2C(C(=O)O)=C(CO)CS[C@H]12)c1csc(N)n1 [desacetyl cefotoxime, reference compound] | no |
| CO/N=C(\C(=O)N[C@@H]1C(=O)N2C(C(=O)O)=C(CSCC(N)=O)CS[C@H]12)c1csc(N)n1 [Example 7] | no |
| CO/N=C(\C(=O)N[C@@H]1C(=O)N2C(C(=O)O)=C(CSC(=O)c3ccco3)CS[C@H]12)c1csc(N)n1 [ceftiofur, reference compound] | yes |
| CO/N=C(\C(=O)N[C@@H]1C(=O)N2C(C(=O)O)=C(CS)CS[C@H]12)c1csc(N)n1 [Formula III compound] | no |
| CO/N=C(\C(=O)N[C@@H]1C(=O)N2C(C(=O)O)=C(CSSc3ccc(Cl)cc3)CS[C@H]12)c1csc(N)n1 [Example 17] | yes |
| CO/N=C(\C(=O)N[C@@H]1C(=O)N2C(C(=O)O)=C(CSSc3ccccc3)CS[C@H]12)c1csc(N)n1 [Example 15] | no |
| CO/N=C(\C(=O)N[C@@H]1C(=O)N2C(C(=O)O)=C(CSSC)CS[C@H]12)c1csc(N)n1 [Example 9] | no |
| CO/N=C(\C(=O)N[C@@H]1C(=O)N2C(C(=O)O)=C(CSSCc3ccco3)CS[C@H]12)c1csc(N)n1 [Example 16] | yes |
| CO/N=C(\C(=O)N[C@@H]1C(=O)N2C(C(=O)O)=C(CSSCC3=C(C(=O)O)N4C(=O)[C@@H](NC(=O)/C(=N\OC)c5csc(N)n5)[C@H]4SC3)CS[C@H]12)c1csc(N)n1 [Example 5] | no |

Reference source: patent US5134137A
